Consider the following compounds; for each one, report its IC50.
Target: 15-PGDH/HPGD (Homo sapiens)
Sequence (P15428 1-266): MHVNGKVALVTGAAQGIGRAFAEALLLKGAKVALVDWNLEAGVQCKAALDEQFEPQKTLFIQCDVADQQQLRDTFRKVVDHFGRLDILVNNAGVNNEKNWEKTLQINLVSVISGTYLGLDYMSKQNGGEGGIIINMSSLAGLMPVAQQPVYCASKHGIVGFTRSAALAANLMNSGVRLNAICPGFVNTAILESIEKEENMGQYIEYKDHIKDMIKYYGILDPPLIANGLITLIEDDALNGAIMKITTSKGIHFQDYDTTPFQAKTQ
Test: hPGDH inhibitor screening biochemical assay
Conditions: 10 nM enzyme, fluorescence ex/em 340/485 nm

What value of IC50 has been reported for the following compound? COCCC[S+]([O-])c1cnc2c(ccn2-c2cccc(-c3nnc[nH]3)c2)c1 (racemic) [Compound 55] < 100 nM

Now this one: COCCC[S+]([O-])c1cnc2c(cnn2-c2cncc(-c3nnc[nH]3)c2)c1 (stereo not shown) [Compound 102A] < 100 nM

Now this one: CC(C)(O)C[S+]([O-])c1cnc2c(cnn2-c2cccc(-c3nnc[nH]3)c2)c1 (single isomer, unassigned) [Compound 101B] < 100 nM

Now this one: CC(C)CC[S+]([O-])c1cnc2c(cnn2-c2ccc(CCCC(=O)O)c(F)c2)c1 (stereo not shown) [Compound 127A] 100 to 1000 nM

* * *

test system: A549; experiment: A549 EC50 (cell assay, no method described); format: cell-based; conditions: A549
Consider the following molecules; for each one, report its EC50.

What value of EC50 has been reported for the following molecule? [O-][S+](c1cnc2c(cnn2-c2cccc(-c3nnc[nH]3)c2)c1)C1CCC(F)(F)C1 (single isomer, unassigned) < 100 nM

Now this one: COC(C)(C)C[S+]([O-])c1cnc2c(cnn2-c2cccc(-c3nnc[nH]3)c2)c1 (stereo not shown) [Compound 112B] ≥ 1000 nM

Now this one: COCCC[S+]([O-])c1cnc2c(cnn2-c2ccc(N3CCNC3=O)nc2)c1 (single isomer, unassigned) [Compound 116B] ≥ 1000 nM

Now this one: [O-][S+](c1cnc2c(cnn2-c2cccc(-c3nnc[nH]3)c2)c1)C1C[C@@H]2C[C@@H]2C1 (single isomer, unassigned) [Compound 123C] ≥ 1000 nM

Now this one: O=C(O)c1ccc(-n2ncc3cc([S+]([O-])C4CC(F)(F)C4)cnc32)cc1 (single isomer, unassigned) [Compound 10B] 100 to 1000 nM

Now this one: [O-][S+](c1cnc2c(ccn2-c2cccc(-c3nnc[nH]3)c2)c1)C1CCC1 (single isomer, unassigned) [Compound 50A] < 100 nM

Now this one: [O-][S+](c1cnc2c(cnn2-c2cccc(-c3nnc[nH]3)c2)c1)C1C[C@@H]2C[C@@H]2C1 (single isomer, unassigned) [Compound 123D] < 100 nM

Now this one: [O-][S+](c1cnc2c(cnn2-c2cccc(-c3nnc[nH]3)c2)c1)C1CCC1 (single isomer, unassigned) [Compound 18A] ≥ 1000 nM

Now this one: CC(C)CC[S+]([O-])c1cnc2c(cnn2-c2cccc(-c3nnc[nH]3)c2)c1 (stereo not shown) [Compound 21B] < 100 nM

Now this one: CC(C)CC[S+]([O-])c1cnc2c(ccn2-c2cccc(-c3nnc[nH]3)c2)c1 (single isomer, unassigned) [Compound 54A] 100 to 1000 nM

Now this one: [O-][S+](CCC1CC1)c1cnc2c(ccn2-c2cccc(-c3nnc[nH]3)c2)c1 (single isomer, unassigned) [Compound 51A] ≥ 1000 nM

Now this one: CC(C)CC[S+]([O-])c1cnc2c(ccn2-c2ccc(C(=O)O)cc2)c1 (single isomer, unassigned) [Compound 48A] < 100 nM

Now this one: COCC1(C[S+]([O-])c2cnc3c(cnn3-c3cccc(-c4nnc[nH]4)c3)c2)CC1 (stereo not shown) [Compound 122A] 100 to 1000 nM

* * *

Biological target: 15-PGDH/HPGD (Homo sapiens)
Sequence (P15428 1-266): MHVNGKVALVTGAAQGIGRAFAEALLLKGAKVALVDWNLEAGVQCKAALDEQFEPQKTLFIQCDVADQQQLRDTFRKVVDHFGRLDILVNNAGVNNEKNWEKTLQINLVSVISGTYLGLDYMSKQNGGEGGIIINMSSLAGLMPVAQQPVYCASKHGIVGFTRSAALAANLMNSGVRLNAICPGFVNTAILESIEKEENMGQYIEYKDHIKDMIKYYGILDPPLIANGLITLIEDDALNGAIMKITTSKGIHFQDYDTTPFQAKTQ
Assay: hPGDH inhibitor screening biochemical assay
Conditions: 10 nM enzyme, fluorescence ex/em 340/485 nm
test readout: IC50

What value of IC50 has been reported for the following compound? CNC(=O)c1ccc(-n2ncc3cc([S+]([O-])C4CC(F)(F)C4)cnc32)cc1 (stereo not drawn) [Compound 118B] 0.1 to 1 µM

Now this one: [O-][S+](c1cnc2c(cnn2-c2cccc(-c3nnc[nH]3)c2)c1)C1C[C@@H]2C[C@@H]2C1 (single isomer, unassigned) [Compound 123A] < 0.1 µM

Now this one: CCOC(=O)Nc1cncc(-n2ncc3cc([S+]([O-])C4CCC(F)(F)CC4)cnc32)c1 (stereo not drawn) [Compound 39] < 0.1 µM

Now this one: [O-][S+](c1cnc2c(cnn2-c2cccc(-c3nnc[nH]3)c2)c1)C1CCC(F)(F)C1 (single isomer, unassigned) [Compound 8B] 0.1 to 1 µM

Now this one: O=S(=O)(c1cnc2c(ccn2-c2cc(F)cc(-c3nnc[nH]3)c2)c1)C1CCCC1 [Compound 60] < 0.1 µM

Now this one: COCCC[S+]([O-])c1cnc2c(cnn2-c2cccc(-c3nnc[nH]3)c2)c1 (stereo not drawn) [Compound 113A] < 0.1 µM

Now this one: CC(=O)Nc1ccc(-c2cncc(-n3ncc4cc([S+]([O-])C5CCCC5)cnc43)c2)cc1 (stereo not drawn) [Compound 12A] < 0.1 µM

Now this one: CC(C)(O)CC[S+]([O-])c1cnc2c(cnn2-c2cccc(-c3nnc[nH]3)c2)c1 (single isomer, unassigned) [Compound 108A] ≥ 1 µM

Now this one: CCCC[S+]([O-])c1cnc2c(cnn2-c2cc(F)cc(NC(=O)OCC)c2)c1 (stereo not drawn) [Compound 27B] ≥ 1 µM

Now this one: COC(C)(C)C[S+]([O-])c1cnc2c(cnn2-c2cccc(-c3nnc[nH]3)c2)c1 (stereo not drawn) [Compound 112B] 0.1 to 1 µM

Now this one: CN(C)c1nnc(-c2cccc(-n3ncc4cc([S+]([O-])C5CCC5)cnc43)c2)[nH]1 (stereo not drawn) [Compound 100A] 0.1 to 1 µM

Now this one: [O-][S+](c1cnc2c(cnn2-c2cccc(-c3ccc(O)nc3)c2)c1)C1CCC(F)(F)C1 (single isomer, unassigned) [Compound 5A] 0.1 to 1 µM

Now this one: COc1ccc(-c2cccc(-n3ncc4cc([S+]([O-])C5CCC5)cnc43)c2)cn1 (stereo not drawn) [Compound 90B] 0.1 to 1 µM

Now this one: [O-][S+](c1cnc2c(ccn2-c2cccc(-c3nnc[nH]3)c2)n1)C1CCC1 (stereo not drawn) [Compound 111A] < 0.1 µM

Now this one: Nc1nnc(-c2cccc(-n3ncc4cc([S+]([O-])C5CCC5)cnc43)c2)[nH]1 (stereo not drawn) [Compound 98A] < 0.1 µM

* * *

Consider the following compounds; for each one, report its IC50.
Molecular target: 15-PGDH/HPGD (Homo sapiens)
Experiment: hPGDH inhibitor screening biochemical assay
Conditions: 10 nM enzyme, fluorescence ex/em 340/485 nm
Excerpt: A hydroxyprostaglandin dehydrogenase inhibition screening biochemical assay can be performed to assess the synthesized inhibitors provided herein. Provided herein is an exemplary biochemical assay for hPGDH inhibitor screening. […]

Record lookup: for 15-PGDH/HPGD (Homo sapiens), what IC50 belongs to COCCC[S+]([O-])c1cnc2c(cnn2-c2ccc(N3CCN(C)C3=O)nc2)c1 (single isomer, unassigned) [Compound 114A] ? < 100 nM

Now this one: CCOCC[S+]([O-])c1cnc2c(cnn2-c2cccc(-c3nnc[nH]3)c2)c1 (stereo not shown) < 100 nM

Now this one: CCOC(=O)Nc1cncc(-n2ccc3cc([S+]([O-])C4CCC(F)(F)CC4)cnc32)c1 (stereo not shown) < 100 nM

Now this one: COCC[S+]([O-])c1cnc2c(cnn2-c2cccc(-c3nnc[nH]3)c2)c1 (stereo not shown) < 100 nM

Now this one: COCCC[S+]([O-])c1cnc2c(cnn2-c2cncc(-c3nnc[nH]3)c2)c1 (stereo not shown) [Compound 102B] 100 to 1000 nM

Now this one: CC(=O)Nc1cccc(-c2cncc(-n3ncc4cc([S+]([O-])C5CCCC5)cnc43)c2)c1 (single isomer, unassigned) [Compound 14A] < 100 nM

Now this one: O=S(=O)(c1cnc2c(cnn2-c2cccc(-c3nnc[nH]3)c2)c1)C1CC(F)(F)C1 100 to 1000 nM
